Cited source for all entries: paper doi:10.64898/2025.12.15.694443v1

biological target: ARAF^SSDD (ARAF^SSDD/MEK1) (Homo sapiens, UniProt P10398, G300S/Y301D/Y302D); test: TR-FRET MEK phosphorylation assay, bell-shaped fit; assay type: biochemical
Sequence (P10398 274-606 G300S/Y301D/Y302D): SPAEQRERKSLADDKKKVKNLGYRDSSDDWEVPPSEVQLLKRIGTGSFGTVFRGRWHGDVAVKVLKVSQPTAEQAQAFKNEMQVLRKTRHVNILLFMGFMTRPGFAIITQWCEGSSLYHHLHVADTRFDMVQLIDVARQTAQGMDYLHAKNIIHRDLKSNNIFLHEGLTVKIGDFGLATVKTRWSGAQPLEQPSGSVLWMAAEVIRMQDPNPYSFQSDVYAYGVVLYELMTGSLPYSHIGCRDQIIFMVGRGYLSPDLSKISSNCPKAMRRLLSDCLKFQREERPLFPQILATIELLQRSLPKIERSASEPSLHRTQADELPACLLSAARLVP
Sequence (Q02750 whole entry S218A/S222A partner): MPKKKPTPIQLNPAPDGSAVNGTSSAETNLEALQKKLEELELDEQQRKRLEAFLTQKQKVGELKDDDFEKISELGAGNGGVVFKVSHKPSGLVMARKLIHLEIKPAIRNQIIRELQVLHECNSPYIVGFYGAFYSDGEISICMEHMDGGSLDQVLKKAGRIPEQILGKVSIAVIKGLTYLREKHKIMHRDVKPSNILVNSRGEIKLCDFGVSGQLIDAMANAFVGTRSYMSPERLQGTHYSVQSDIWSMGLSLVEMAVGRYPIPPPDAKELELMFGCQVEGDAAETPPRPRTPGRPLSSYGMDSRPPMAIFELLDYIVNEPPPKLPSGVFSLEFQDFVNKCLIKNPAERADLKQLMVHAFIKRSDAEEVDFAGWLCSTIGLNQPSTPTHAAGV
observed-property: IC50 (nM)
Just the number please, in nM, no unit attached.

Notebook: pull reported IC50 for ARAF^SSDD (ARAF^SSDD/MEK1) (Homo sapiens, UniProt P10398, G300S/Y301D/Y302D), entry `Cc1ccc(NC(=O)c2cccc(C(C)(C)C#N)c2)cc1Nc1ccc2ncn(C)c(=O)c2c1`
44.4

// moving on: another record for IC50
Notebook: pull reported IC50 for ARAF^SSDD (ARAF^SSDD/MEK1) (Homo sapiens, UniProt P10398, G300S/Y301D/Y302D), entry `Cc1ccc(NC(=O)c2ccnc(C(F)(F)F)c2)cc1-c1cc(OCCO)nc(N2CCOCC2)c1`
673

* * *

molecular target: CRAF monomer complex (CRAF/MEK1 SASA) (Homo sapiens, UniProt P04049); assay: TR-FRET MEK phosphorylation assay, bell-shaped fit
Sequence (P04049 324-618): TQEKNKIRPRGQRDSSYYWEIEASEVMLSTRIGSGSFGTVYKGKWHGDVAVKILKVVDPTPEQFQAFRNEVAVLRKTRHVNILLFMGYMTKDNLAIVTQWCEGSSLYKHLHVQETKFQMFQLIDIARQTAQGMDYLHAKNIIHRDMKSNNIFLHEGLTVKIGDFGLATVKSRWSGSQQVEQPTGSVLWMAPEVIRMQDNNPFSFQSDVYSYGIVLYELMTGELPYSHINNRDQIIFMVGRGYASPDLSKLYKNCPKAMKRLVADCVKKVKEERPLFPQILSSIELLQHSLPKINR
Sequence (Q02750 whole entry S218A/S222A partner): as the sequence (Q02750 whole entry S218A/S222A partner) above
pIC50: −log10 of the molar value.
observed-property: pIC50

Returns the measured pIC50 for the input compound. Input: `CN(C)CCOc1ccc(-c2nc(-c3ccncc3)c(-c3ccc4c(c3)CC/C4=N\O)[nH]2)cc1`
< 5.00
